Target: human ERα (Homo sapiens, UniProt P03372)
Construct: purchased Invitrogen
Experiment: Estrogen receptor fluorescence polarisation competitive binding assay, ERα
Details: relative binding affinity, estradiol (5.7 nM) = 100%
Sorting guide: entries reporting ERα RBA beneath 3% go in the t pile, the rest go in the f pile.

INSERT INTO results (compound, assayed_target, label) VALUES
  ('CNCCOc1ccc(C(=C2CCC(C)CC2)c2ccc(O)cc2)cc1 (stereo not shown) [Compound 11e]', 'human ERα (Homo sapiens, UniProt P03372)', 't'),
  ('CCC(=C(c1ccc(O)cc1)c1ccc(OCCN(C)C(=O)/C(=C/c2cc(OC)c(OC)c(OC)c2)c2ccc(OC)c(O)c2)cc1)c1ccccc1 (mixture of isomers)', 'human ERα (Homo sapiens, UniProt P03372)', 'f');

In the record for COc1ccc(/C=C(/C(=O)N(C)CCOc2ccc(C(=C3CCC(C)CC3)c3ccc(O)cc3)cc2)c2cc(OC)c(OC)c(OC)c2)cc1O (stereo not shown) [Compound 13e] , is ERα RBA less than 3%? f

In the record for CNCCOc1ccc(C(=C2CCCCCC2)c2ccc(O)cc2)cc1 [Compound 11c] , is ERα RBA less than 3%? t

In the record for CC/C(=C(\c1ccccc1)c1ccc(OCCN(C)C(=O)CCC(=O)Oc2cc(/C=C(/C(=O)OC)c3cc(OC)c(OC)c(OC)c3)ccc2OC)cc1)c1ccccc1 [Compound 16c] , is ERα RBA less than 3%? f

In the record for CNCCOc1ccc(C(=C2CCCCCCC2)c2ccc(O)cc2)cc1 [Compound 11d] , is ERα RBA less than 3%? f

In the record for CC/C(=C(\c1ccc(O)cc1)c1ccc(OCCNC)cc1)c1ccccc1 [Endoxifen] , is ERα RBA less than 3%? f

====

Assay: in vitro
Conditions: plasma
endpoint-name: half-life

What does the data say about its half-life? Entry: CC/C(=C(\c1ccc(O)cc1)c1ccc(OCCN(C)C(=O)CCC(=O)Oc2cc(/C=C\c3cc(OC)c(OC)c(OC)c3)ccc2OC)cc1)c1ccccc1 [Compound 16b] > 48 h

====

Target: human ERα (Homo sapiens, UniProt P03372)
Construct: purchased Invitrogen
Experiment: Estrogen receptor fluorescence polarisation competitive binding assay, ERα
Settings: competitive binding, fluorescence polarisation; read-out: ERα IC50
Give measured IC50 for each item. Keep answers brief.
Numbers only, in nM.

INSERT INTO measurements (compound, result_units, observed_value) VALUES
  ('CCC(=C(c1ccc(O)cc1)c1ccc(OCCN(C)C(=O)/C(=C/c2cc(OC)c(OC)c(OC)c2)c2ccc(OC)c(O)c2)cc1)c1ccccc1 (mixture of isomers)', 'nM', 182),
  ('CC/C(=C(\c1ccc(O)cc1)c1ccc(OCCNC)cc1)c1ccccc1 [Endoxifen]', 'nM', 47),
  ('CNCCOc1ccc(C(=C2CCC(C)CC2)c2ccc(O)cc2)cc1 (stereo not drawn) [Compound 11e]', 'nM', 3160),
  ('CNCCOc1ccc(C(=C2CCCCCC2)c2ccc(O)cc2)cc1 [Compound 11c]', 'nM', 1740),
  ('CC/C(=C(\c1ccccc1)c1ccc(OCCN(C)C(=O)CCC(=O)Oc2cc(/C=C(/C(=O)OC)c3cc(OC)c(OC)c(OC)c3)ccc2OC)cc1)c1ccccc1 [Compound 16c]', 'nM', 70.9);

Then there is this compound:
What does the data say about its IC50? Entry: CNCCOc1ccc(C(=C2CCCCCCC2)c2ccc(O)cc2)cc1 [Compound 11d] 170

====

Test system: 60 cancer cell lines
Test: NCI 60 cell line screen, whole panel
Type: cell-based, human
Details: Homo sapiens, 60 cell, read-out: GI50 (IC50) values for most of the 60 cancer cell lines
pIC50: −log10 of the molar value.
endpoint-name: pIC50

What does the data say about its pIC50? Entry: CC/C(=C(\c1ccccc1)c1ccc(OCCN(C)C(=O)CCC(=O)Oc2cc(/C=C\c3cc(OC)c(OC)c(OC)c3)ccc2OC)cc1)c1ccccc1 (mixture of isomers) [Compound 16a] 7.14 to 8.00

====

Target: human ERα (Homo sapiens)
Construct: purchased Invitrogen
Sequence (P03372 1-595): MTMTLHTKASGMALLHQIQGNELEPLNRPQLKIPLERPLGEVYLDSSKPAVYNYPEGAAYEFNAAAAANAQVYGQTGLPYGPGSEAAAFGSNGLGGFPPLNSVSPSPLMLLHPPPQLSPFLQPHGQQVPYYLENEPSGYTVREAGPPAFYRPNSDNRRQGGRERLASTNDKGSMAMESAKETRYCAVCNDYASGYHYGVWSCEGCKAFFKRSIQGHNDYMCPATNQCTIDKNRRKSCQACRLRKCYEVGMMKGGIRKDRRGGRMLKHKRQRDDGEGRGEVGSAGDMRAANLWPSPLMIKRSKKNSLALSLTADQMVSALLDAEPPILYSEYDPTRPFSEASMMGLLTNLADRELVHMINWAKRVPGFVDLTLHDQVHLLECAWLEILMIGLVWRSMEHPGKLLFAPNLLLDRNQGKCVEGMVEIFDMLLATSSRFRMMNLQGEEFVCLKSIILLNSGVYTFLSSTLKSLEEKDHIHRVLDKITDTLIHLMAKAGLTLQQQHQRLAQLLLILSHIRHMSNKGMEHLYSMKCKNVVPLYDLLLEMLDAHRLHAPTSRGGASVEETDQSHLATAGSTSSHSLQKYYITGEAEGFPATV
Assay: Estrogen receptor fluorescence polarisation competitive binding assay, ERα
endpoint-name: pIC50
Numbers only, as −log10 of the molar value.

What does the data say about its pIC50? Entry: COc1ccc(/C=C(/C(=O)N(C)CCOc2ccc(C(=C3CCC(C)CC3)c3ccc(O)cc3)cc2)c2cc(OC)c(OC)c(OC)c2)cc1O (stereo not shown) [Compound 13e] 7.72

====

Assay: physchem
Conditions: buffer
endpoint-name: half-life at 14.6 µg/mL

What does the data say about its half-life at 14.6 µg/mL? Entry: CC/C(=C(\c1ccccc1)c1ccc(OCCN(C)C(=O)CCC(=O)Oc2cc(/C=C\c3cc(OC)c(OC)c(OC)c3)ccc2OC)cc1)c1ccccc1 (mixture of isomers) [Compound 16a] > 20 h

====

Biological target: human ERβ (Homo sapiens)
Construct: purchased Invitrogen
Assay: Estrogen receptor fluorescence polarisation competitive binding assay, ERβ
Settings: competitive binding, fluorescence polarisation; read-out: ERβ IC50
Sorting guide: entries reporting IC50 beneath 100 nM go in the Criterion met pile, the rest go in the Criterion not met pile.

INSERT INTO measurements (molecule, assayed_target, label) VALUES
  ('CC/C(=C(\c1ccccc1)c1ccc(OCCN(C)C(=O)CCC(=O)Oc2cc(/C=C\c3cc(OC)c(OC)c(OC)c3)ccc2OC)cc1)c1ccccc1 (mixture of isomers) [Compound 16a]', 'human ERβ (Homo sapiens)', 'Criterion met'),
  ('CNCCOc1ccc(C(=C2CCC(C)CC2)c2ccc(O)cc2)cc1 (stereo not shown) [Compound 11e]', 'human ERβ (Homo sapiens)', 'Criterion met'),
  ('CNCCOc1ccc(C(=C2CCCCCCC2)c2ccc(O)cc2)cc1 [Compound 11d]', 'human ERβ (Homo sapiens)', 'Criterion not met');

Continue with the molecule presented below.
In the record for CNCCOc1ccc(C(=C2CCCCCC2)c2ccc(O)cc2)cc1 [Compound 11c] , is IC50 less than 100 nM? Criterion not met

====

Molecular target: human ERβ (Homo sapiens)
Construct: purchased Invitrogen
Assay: Estrogen receptor fluorescence polarisation competitive binding assay, ERβ
endpoint-name: IC50 (nM)
One number for each entry, in nM.

What does the data say about its IC50? Entry: COc1ccc(/C=C(/C(=O)N(C)CCOc2ccc(C(=C3CCC(C)CC3)c3ccc(O)cc3)cc2)c2cc(OC)c(OC)c(OC)c2)cc1O (stereo not shown) [Compound 13e] 229

====

Molecular target: human ERβ (Homo sapiens, UniProt Q92731)
Construct: purchased Invitrogen
Sequence (Q92731 whole entry): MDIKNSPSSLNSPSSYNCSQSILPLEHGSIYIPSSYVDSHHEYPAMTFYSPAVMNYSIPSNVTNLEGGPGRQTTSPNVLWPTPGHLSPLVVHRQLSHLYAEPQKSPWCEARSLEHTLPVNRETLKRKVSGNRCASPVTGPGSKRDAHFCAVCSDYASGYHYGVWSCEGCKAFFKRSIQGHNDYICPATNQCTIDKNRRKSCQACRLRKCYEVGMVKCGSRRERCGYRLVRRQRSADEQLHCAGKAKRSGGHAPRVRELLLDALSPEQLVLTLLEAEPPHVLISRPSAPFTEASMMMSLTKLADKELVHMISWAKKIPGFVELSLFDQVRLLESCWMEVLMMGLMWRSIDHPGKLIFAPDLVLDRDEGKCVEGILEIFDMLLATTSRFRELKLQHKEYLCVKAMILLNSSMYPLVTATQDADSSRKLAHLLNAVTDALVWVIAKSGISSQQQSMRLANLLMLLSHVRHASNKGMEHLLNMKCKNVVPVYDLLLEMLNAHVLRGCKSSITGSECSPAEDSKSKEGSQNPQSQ
Experiment: Estrogen receptor fluorescence polarisation competitive binding assay, ERβ
Conditions: competitive binding, fluorescence polarisation; read-out: ERβ IC50
endpoint-name: pIC50
One number for each entry, as −log10 of the molar value.

For each of the items listed, what is its pIC50?
1. CC/C(=C(\c1ccccc1)c1ccc(OCCN(C)C(=O)CCC(=O)Oc2cc(/C=C(/C(=O)OC)c3cc(OC)c(OC)c(OC)c3)ccc2OC)cc1)c1ccccc1 [Compound 16c]
2. CC/C(=C(\c1ccc(O)cc1)c1ccc(OCCNC)cc1)c1ccccc1 [Endoxifen]
3. CCC(=C(c1ccc(O)cc1)c1ccc(OCCN(C)C(=O)/C(=C/c2cc(OC)c(OC)c(OC)c2)c2ccc(OC)c(O)c2)cc1)c1ccccc1 (mixture of isomers) [Compound 3i]

1. 7.05
2. 6.93
3. 6.36
